Hi there, I'd appreciate the recorded EC50 for every entry that follows.
Molecular target: hM4 receptors (Homo sapiens)
Sequence (P08173 whole entry): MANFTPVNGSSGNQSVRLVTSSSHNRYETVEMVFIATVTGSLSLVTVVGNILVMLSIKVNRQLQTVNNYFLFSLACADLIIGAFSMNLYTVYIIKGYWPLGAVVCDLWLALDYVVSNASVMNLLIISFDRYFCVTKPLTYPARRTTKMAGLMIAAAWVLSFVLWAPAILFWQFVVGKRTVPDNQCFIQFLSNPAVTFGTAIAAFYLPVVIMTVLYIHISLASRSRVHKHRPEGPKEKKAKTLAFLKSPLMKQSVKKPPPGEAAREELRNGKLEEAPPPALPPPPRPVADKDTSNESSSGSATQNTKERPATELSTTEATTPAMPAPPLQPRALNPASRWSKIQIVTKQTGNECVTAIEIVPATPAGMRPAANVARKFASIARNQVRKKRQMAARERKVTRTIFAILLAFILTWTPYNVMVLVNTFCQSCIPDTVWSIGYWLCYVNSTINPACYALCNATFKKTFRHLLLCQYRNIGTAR
Test: Human M4 PAM pERK assay
Conditions: PAM mode

Take a look at these entries with their results.
| compound | target | EC50 |
| --- | --- | --- |
| Cc1c2c(n(C)c(=O)c1Cl)CN(C(=O)c1cnc(C(F)(F)C3CC3)s1)C2 [Compound I-67] | hM4 receptors (Homo sapiens) | < 0.1 µM |
| Cc1cc(=O)n(C)c2c1C(C)N(C(=O)c1ccc3nc(C4CC4)sc3c1)C2 (single isomer, unassigned) [Compound I-99] | hM4 receptors (Homo sapiens) | 0.1 to 0.5 µM |
| Cc1c2c(n(C)c(=O)c1Cl)CN(C(=O)c1cnn(CC3CCOC3)c1)C2 (centres unmarked) [Compound I-56] | hM4 receptors (Homo sapiens) | > 2 µM |

Respectfully, I request EC50 for each entry included below.
1. Cc1c2c(n(C)c(=O)c1Cl)CN(C(=O)c1cnn(Cc3ccc(C(F)(F)F)nc3)c1)C2 [Compound I-57]
2. COc1c2c(n(C)c(=O)c1Cl)CN(C(=O)c1cnn(C(F)(F)F)c1)C2C (centres unmarked) [Compound I-73]
3. COc1c2c(n(C)c(=O)c1C)CN(C(=O)c1cnn(C(F)(F)F)c1)C2 [Compound I-87]

1: > 2 µM; 2: 0.1 to 0.5 µM; 3: < 0.1 µM

Respectfully, I request EC50 for each entry included below.
1. Cc1c2c(n(CC3CC3)c(=O)c1Cl)CN(C(=O)c1cnc(CC3CC3)s1)C2 [Compound I-69]
2. Cc1c2c(n(C)c(=O)c1Cl)CN(C(=O)c1cnn(Cc3ccncc3)c1)C2 [Compound I-60]

["0.1 to 0.5 µM", "0.1 to 0.5 µM"]

====

Target: human M4 receptor (Homo sapiens, UniProt P08173)
Experiment: M4 GTPγS PAM assay
Settings: CHO-K1 membranes expressing human M4, with EC20 acetylcholine (40 nM)
quantity: EC50

Take a look at these entries with their results.
| compound | EC50 |
| --- | --- |
| Cc1c2c(n(C)c(=O)c1Cl)CN(C(=O)c1csc(C(F)(F)F)n1)C2 | > 2000 nM |
| Cc1cc(=O)n(C)c2c1C(C)N(C(=O)c1cnc(C(F)(F)F)s1)C2 (single isomer, unassigned) [Compound I-94] | > 2000 nM |
| Cc1cc(=O)n(C)c2c1CN(C(=O)c1cnn(C)c1)C2C (stereo not drawn) [Compound I-105] | > 2000 nM |
| COc1cc(=O)n(C)c2c1C(C)N(C(=O)c1cnn(C(F)(F)F)c1)C2 (stereo not drawn) [Compound I-79] | 500 to 2000 nM |
| Cc1c2c(n(C)c(=O)c1C)CN(C(=O)c1cnn(C(F)(F)F)c1)C2 | 100 to 500 nM |
| Cc1c2c(n(C)c(=O)c1Cl)CN(C(=O)c1cnc(C)n1C)C2 | > 2000 nM |
| Cc1c2c(n(C)c(=O)c1Cl)CN(C(=O)c1cc(C(F)(F)F)on1)C2 | > 2000 nM |
| Cc1c2c(n(C)c(=O)c1Cl)C(C)N(C(=O)c1cnn(C(F)(F)F)c1)C2 (stereo not drawn) [Compound I-109] | > 2000 nM |

Respectfully, I request EC50 for each entry included below.
1. COc1c2c(n(C)c(=O)c1Cl)CN(C(=O)c1cnn(C(F)(F)F)c1)C2C (stereo not drawn) [Compound I-73]
2. Cc1c2c(n(C)c(=O)c1Cl)CN(C(=O)c1cc(C3CC3)on1)C2
3. Cc1coc(C(=O)N2Cc3c(C)c(Cl)c(=O)n(C)c3C2)n1
4. Cc1c2c(n(C)c(=O)c1Cl)CN(C(=O)c1cnc(C3CC3)s1)C2

["100 to 500 nM", "> 2000 nM", "500 to 2000 nM", "100 to 500 nM"]
